test.protocol: Partition coefficient octanol/buffer
Assay type: physicochemical
measurement.context: n-octanol and phosphate buffer, pH 7.4; read-out: partition coefficient (PC) (converted)
property: logD
Just the number.

Can you share its logD? I mean this molecule: CN(C)Cc1ccccc1Sc1ccc([125I])cc1CO [[^125I]IDAM]
2.67

----------
assayed.target: SERT (Rattus norvegicus)
Sequence (P31652 whole entry): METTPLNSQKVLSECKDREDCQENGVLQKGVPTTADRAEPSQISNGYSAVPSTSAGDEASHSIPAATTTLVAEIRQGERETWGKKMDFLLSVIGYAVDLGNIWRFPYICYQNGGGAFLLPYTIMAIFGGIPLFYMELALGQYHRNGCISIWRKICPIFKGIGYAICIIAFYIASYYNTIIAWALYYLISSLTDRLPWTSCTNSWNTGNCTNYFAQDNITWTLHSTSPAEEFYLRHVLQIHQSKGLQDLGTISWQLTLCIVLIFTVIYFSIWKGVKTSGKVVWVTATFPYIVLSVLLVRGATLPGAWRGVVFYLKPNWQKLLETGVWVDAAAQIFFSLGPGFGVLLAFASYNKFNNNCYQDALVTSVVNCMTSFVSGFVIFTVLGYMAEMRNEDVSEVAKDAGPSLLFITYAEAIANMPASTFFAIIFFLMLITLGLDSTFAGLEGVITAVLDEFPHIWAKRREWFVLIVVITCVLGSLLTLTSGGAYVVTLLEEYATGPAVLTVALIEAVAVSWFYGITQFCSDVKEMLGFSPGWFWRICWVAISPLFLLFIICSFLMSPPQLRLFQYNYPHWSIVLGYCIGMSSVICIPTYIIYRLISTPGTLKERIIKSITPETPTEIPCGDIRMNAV
test.protocol: Competition binding with [125I]IDAM in rat frontal cortical homogenate
Parameters: The frontal cortex of rat brain were dissected and homogenized in 30 volumes of buffer; from tissue; host or cells: rat frontal cortex membrane homogenates (male Sprague-Dawley rats, control and PCA-lesioned)
measurement.context: 0.2 nM [125I]IDAM, rat frontal cortical homogenate; read-out: Ki for inhibition of [125I]IDAM binding
property: pKi
Schema: pKi number; meaning minus log10 of the concentration expressed in molar units.

Can you share its pKi? I mean this compound: "CN(C)Cc1ccccc1Oc1ccc(I)cc1CO"
8.54

We next turn to a different compound, shown below.
Can you share its pKi? I mean this compound: CCN1CCC[C@H]1CNC(=O)c1c(O)c(Cl)cc(Cl)c1OC [Raclopride, raclopride]
6.17

----------
assayed.target: dopamine transporter (DAT) expressed in LLC-PK1 cells (Rattus norvegicus, UniProt P23977)
Construct: host or cells: LLC-PK1 (LLC-DAT)
Sequence (P23977 whole entry): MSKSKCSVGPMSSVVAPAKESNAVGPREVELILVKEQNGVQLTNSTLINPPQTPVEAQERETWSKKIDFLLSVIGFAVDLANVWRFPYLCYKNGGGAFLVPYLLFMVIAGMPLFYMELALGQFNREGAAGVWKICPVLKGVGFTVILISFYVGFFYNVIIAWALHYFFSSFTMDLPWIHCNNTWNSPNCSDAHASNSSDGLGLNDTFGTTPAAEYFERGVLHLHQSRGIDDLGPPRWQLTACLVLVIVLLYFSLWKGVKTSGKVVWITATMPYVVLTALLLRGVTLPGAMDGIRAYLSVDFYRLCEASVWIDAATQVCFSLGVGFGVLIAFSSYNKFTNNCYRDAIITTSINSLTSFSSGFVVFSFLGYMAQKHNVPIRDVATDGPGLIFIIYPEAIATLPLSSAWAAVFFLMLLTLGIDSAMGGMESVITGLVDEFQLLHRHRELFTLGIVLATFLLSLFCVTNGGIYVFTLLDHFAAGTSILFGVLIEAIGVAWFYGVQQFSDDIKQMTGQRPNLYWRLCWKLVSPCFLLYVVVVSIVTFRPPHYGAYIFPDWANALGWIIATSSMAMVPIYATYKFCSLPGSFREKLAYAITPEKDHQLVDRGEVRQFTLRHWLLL
test.protocol: [125I]IPT competition binding, LLC-DAT membrane homogenates
measurement.context: [125I]IPT ligand, LLC-PK1 membranes; read-out: Inhibition constant (Ki) DAT
Text: Three monoamine transporters expressed respectively in a common parental cell line, LLC-PK, (referred to as LLC-DAT. LLC-NET and LLC-SERT) were kindly provided by Dr. G. Rudnick of Yale University.
Listing of entries alongside the reported pKi.
Schema: pKi number; meaning minus log10 of the concentration expressed in molar units.

Can you share its pKi? I mean this molecule: "CN(C)Cc1ccccc1Sc1ccc(Br)cc1[N+](=O)[O-]"
4.83

Can you share its pKi? I mean this molecule: "CC(=O)OCc1cc(Br)ccc1Sc1ccccc1CN(C)C"
7.69

Can you share its pKi? I mean this molecule: "CN(C)Cc1ccccc1Oc1ccc(I)cc1CO"
5.41

Can you share its pKi? I mean this molecule: "CCOCc1cc(I)ccc1Sc1ccccc1CN(C)C"
4.95

Can you share its pKi? I mean this molecule: "CCCOCc1cc(I)ccc1Sc1ccccc1CN(C)C"
5.03

Continuing:
Can you share its pKi? I mean this molecule: "CN(C)Cc1ccccc1Sc1ccccc1N"
5.77

----------
assayed.target: norepinephrine transporter (NET) expressed in LLC-PK1 cells (Homo sapiens)
Construct: host or cells: LLC-PK1 (LLC-NET)
Sequence (P23975 whole entry): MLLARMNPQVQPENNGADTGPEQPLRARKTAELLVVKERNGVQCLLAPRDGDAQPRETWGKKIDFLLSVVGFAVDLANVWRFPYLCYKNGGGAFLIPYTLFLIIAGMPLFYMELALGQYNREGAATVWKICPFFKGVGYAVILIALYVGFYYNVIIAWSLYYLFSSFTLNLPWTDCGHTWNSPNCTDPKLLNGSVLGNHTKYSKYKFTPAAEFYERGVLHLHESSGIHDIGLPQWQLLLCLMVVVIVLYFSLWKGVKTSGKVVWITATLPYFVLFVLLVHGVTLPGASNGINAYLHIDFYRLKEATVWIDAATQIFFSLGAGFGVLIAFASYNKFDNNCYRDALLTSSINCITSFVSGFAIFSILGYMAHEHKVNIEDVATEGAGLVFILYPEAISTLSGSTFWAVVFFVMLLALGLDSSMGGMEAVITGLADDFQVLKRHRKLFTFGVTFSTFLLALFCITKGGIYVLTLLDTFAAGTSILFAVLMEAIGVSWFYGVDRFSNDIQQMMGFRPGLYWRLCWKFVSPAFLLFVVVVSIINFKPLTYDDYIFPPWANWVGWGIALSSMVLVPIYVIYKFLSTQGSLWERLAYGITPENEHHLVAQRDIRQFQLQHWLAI
test.protocol: [125I]IPT competition binding, LLC-NET membrane homogenates
property: Ki (nM)
Lab book: enter the figure in nM, no units written.

Can you share its Ki? I mean this compound: "CN(C)Cc1ccccc1Sc1ccc(Br)cc1N"
214

We next turn to a different compound, shown below.
Can you share its Ki? I mean this compound: "COCc1cc(I)ccc1Sc1ccccc1CN(C)C"
155

----------
assayed.target: serotonin transporter (SERT) expressed in LLC-PK1 cells (Rattus norvegicus)
Construct: host or cells: LLC-PK1 (LLC-SERT)
test.protocol: [125I]IPT competition binding, LLC-SERT membrane homogenates
Text: Three monoamine transporters expressed respectively in a common parental cell line, LLC-PK, (referred to as LLC-DAT. LLC-NET and LLC-SERT) were kindly provided by Dr. G. Rudnick of Yale University.
pKi: −log10 of the molar value.
property: pKi

Sample answers from the record:
Can you share its pKi? I mean this molecule: "CN(C)Cc1ccccc1Sc1ccc(Cl)cc1CO"
> 11.00

Can you share its pKi? I mean this molecule: "COCc1cc(I)ccc1Sc1ccccc1CN(C)C"
10.70

Can you share its pKi? I mean this molecule: "CN(C)Cc1ccccc1Sc1ccc(I)cc1CO"
> 10.00

We next turn to a different molecule, shown below.
Can you share its pKi? I mean this molecule: "CN(C)Cc1ccccc1Sc1ccc(I)cc1N"
~10.89

----------
assayed.target: serotonin transporter (SERT) expressed in LLC-PK1 cells (Rattus norvegicus, UniProt P31652)
Construct: host or cells: LLC-PK1 (LLC-SERT)
Sequence (P31652 whole entry): as the sequence (P31652 whole entry) above
test.protocol: [125I]IPT competition binding, LLC-SERT membrane homogenates
measurement.context: [125I]IPT ligand, LLC-PK1 membranes; read-out: Inhibition constant (Ki) SERT
Threshold 2 nM: Ki strictly smaller gives fulfilled, otherwise not fulfilled.

Is the reported Ki for Cc1ccccc1Nc1ccc(I)cc1CN(C)C [K99037] strictly below 2 nM?
not fulfilled

Continuing:
Is the reported Ki for CCOCc1cc(I)ccc1Sc1ccccc1CN(C)C [K119] strictly below 2 nM?
fulfilled

Is the reported Ki for CN(C)Cc1ccccc1Sc1ccc(Br)cc1[N+](=O)[O-] [K110] strictly below 2 nM?
fulfilled

----------
assayed.target: norepinephrine transporter (NET) expressed in LLC-PK1 cells (Homo sapiens)
Construct: host or cells: LLC-PK1 (LLC-NET)
test.protocol: [125I]IPT competition binding, LLC-NET membrane homogenates
measurement.context: [125I]IPT ligand, LLC-PK1 membranes; read-out: Inhibition constant (Ki) NET
property: Ki (nM)
Lab book: enter the figure in nM, no units written.

Sample answers from the record:
Can you share its Ki? I mean this compound: "CCCOCc1cc(I)ccc1Sc1ccccc1CN(C)C"
382

Can you share its Ki? I mean this compound: "CN(C)Cc1ccccc1Sc1ccc(Br)cc1NO"
165

Can you share its Ki? I mean this compound: "CN(C)Cc1ccccc1Sc1ccc(I)cc1N"
699

Can you share its Ki? I mean this compound: "CN(C)Cc1ccccc1Sc1ccc(Br)cc1CO"
35.4

We next turn to a different compound, shown below.
Can you share its Ki? I mean this compound: "CC(=O)OCc1cc(Br)ccc1Sc1ccccc1CN(C)C"
420

----------
assayed.target: serotonin transporter (SERT) expressed in LLC-PK1 cells (Rattus norvegicus)
Construct: host or cells: LLC-PK1 (LLC-SERT)
test.protocol: [125I]IPT competition binding, LLC-SERT membrane homogenates
measurement.context: [125I]IPT ligand, LLC-PK1 membranes; read-out: Inhibition constant (Ki) SERT
Threshold 0.3 nM: Ki strictly smaller gives yes, otherwise no.

As a guide, the following entries are already answered.
Is the reported Ki for CN(C)Cc1ccccc1Sc1ccc(Br)cn1 [K102] strictly below 0.3 nM?
no

Is the reported Ki for CN(C)Cc1ccccc1Oc1ccc(I)cc1 [K99039] strictly below 0.3 nM?
yes

Continuing:
Is the reported Ki for CN(C)Cc1cc(N)ccc1Cc1ccccc1 [K99034] strictly below 0.3 nM?
no

Is the reported Ki for Cc1ccccc1Nc1ccc(N)cc1CN(C)C [K99036] strictly below 0.3 nM?
no

Is the reported Ki for CN(C)Cc1ccccc1Sc1ccccc1N [K109] strictly below 0.3 nM?
yes

Is the reported Ki for CC(=O)OCc1cc(Br)ccc1Sc1ccccc1CN(C)C [K68] strictly below 0.3 nM?
no

Is the reported Ki for CN(C)Cc1ccccc1Oc1ccc(I)cc1CO [ODAM] strictly below 0.3 nM?
yes

Is the reported Ki for CCCOCc1cc(I)ccc1Sc1ccccc1CN(C)C [K120] strictly below 0.3 nM?
no

Is the reported Ki for CNCc1ccccc1Sc1ccc(I)cc1CO [K99032] strictly below 0.3 nM?
yes

Is the reported Ki for CN(C)Cc1ccccc1Sc1ccc(Br)cc1CO [brominated derivative] strictly below 0.3 nM?
yes
